// provenance: PubChem BioAssay (NCI)

Tested on: SF-268 CNS
assayName: NCI tumour cell line growth inhibition, 48 h
Each item that follows carries a reported TGI.

The cases that follow already have their TGI on record.
CN(C)CCCN1C(=O)N(CCCN(C)C)c2c3cc(O)ccc3nc3c([N+](=O)[O-])ccc1c23    26.3 µM
CC1Oc2c(c(O)cc3oc(=O)cc(-c4ccccc4)c23)C(=O)C1C (configuration not stated)    > 100 µM
COc1ccccc1OCC(O)CO (configuration not stated)    > 100 µM

For Cc1ccc2c3ccc4c(c3n(C)c2c1)C(=O)C=CC4=O , write its TGI. > 10 µM

For CC(C)=CCC[C@](C)(O)[C@H]1CC[C@]2(C)[C@@H]1CC[C@@H]1[C@@]3(C)CC[C@H](OC(=O)CCC(=O)O)C(C)(C)[C@@H]3CC[C@]12C , write its TGI. > 100 µM

For Cc1cc(C#Cc2ccccc2)ccc1-n1c(/C=C/c2ccc(O)cc2)nc2ccccc2c1=O , write its TGI. > 100 µM

###

Test system: EKVX NSCLC
assayName: NCI tumour cell line growth inhibition, 48 h
measurementLabel: TGI

The cases that follow already have their TGI on record.
c1csc(-c2csc(-c3cccs3)c2)c1    > 100 µM
CC[N+]1(C)CCC(O)(/C=C/c2ccc(Cl)c(Cl)c2)C(C(=O)/C=C/c2ccc(Cl)c(Cl)c2)C1 (stereo unspecified)    23.3 µM
O=c1c2cc(Cl)ccc2n2nnc3ccc(NCCNCCO)c1c32    4.44 µM
O=c1[nH]nc(Cc2ccc([N+](=O)[O-])cc2)[nH]1    > 100 µM
Cc1ccc2c(=O)c3c(O)c4c(cc3n(C)c2c1)OC(C)(C)C=C4    > 10 µM

For c1ccc(CN(Cc2ccccn2)Cn2cccn2)nc1 , write its TGI. > 100 µM

For CCOC(=O)c1cc2cc([N+](=O)[O-])ccc2oc1=O , write its TGI. > 100 µM

For C/C(=N\N=C(N)N)c1sc(-c2nc(C)c(/C(C)=N/N=C(N)N)s2)nc1C , write its TGI. > 100 µM

For NC(=S)NS(=O)(=O)c1ccc(Cl)cc1Cl , write its TGI. > 100 µM

For CNc1ccc([N+](=O)[O-])cc1C(=O)N1CCC[C@H]1CO , write its TGI. > 100 µM

For N#CCc1nc2c(s1)C(=O)c1ccccc1C2=O , write its TGI. 49.1 µM

For COCCn1cc(-c2csc(-c3c[nH]c4ccc(F)cc34)n2)c2cccnc21 , write its TGI. > 100 µM

###

Each item that follows carries a reported TGI.
Test system: NCI-H23 lung
assayName: NCI tumour cell line growth inhibition, 48 h

The cases that follow already have their TGI on record.
O.O=[Se](=O)(O)O.[NH-]C1CCCCC1[NH-].[Pt+2] (centres undefined)    > 94.9 µM
CN(c1ccccc1)c1c(-c2ccccc2)c(=O)oc2c1ccc1occc12    > 100 µM
N#CC(/C(=N\NC(N)=S)C(=O)NC1C2CC3CC(C2)CC1C3)c1ccc(Cl)cc1 (centres undefined)    > 100 µM

Pending compound:
For CC1(C)CN=C(c2ccc3ccccc3c2O)N1 , write its TGI. > 100 µM

###

Each item that follows carries a reported TGI.
Tested on: KM12 colon
assayName: NCI tumour cell line growth inhibition, 48 h
// return numeric value only (unit: µM, not printed)

The cases that follow already have their TGI on record.
CCn1c2ccccc2c2cc(NC(=O)c3c(C)[nH]c(=O)[nH]c3=S)ccc21    64.5
Cc1cccc(-c2cc(=O)c3c(C)ccnc3[nH]2)c1    16.8
CC1=CC(=O)c2[nH]c3ccccc3c2C1=O    9.01
Clc1cccc(Cl)c1C1ON=C(c2ccccc2)N1C12CC3CC(CC(C3)C1)C2 (centres undefined)    30.8
CC1=C[C@H]2C[C@@]3(C)O[C@@H]([C@]4(C)CC[C@H]([C@@H](C)C(=O)O)OO4)CC3C(C)(C)[C@H]2CC1 (some centres undefined)    1.65

Pending molecule:
For Cc1cc(C(=O)NCCN(C)C)c2nc3ccccc3nc2c1 , write its TGI. 23.8

###

Test system: HOP-62 NSCLC
assayName: NCI tumour cell line growth inhibition, 48 h
Each item that follows carries a reported TGI.

The cases that follow already have their TGI on record.
C[C@@H](CC(O)C(O)C(C)(C)O)C1CCC23CC12CCC1[C@@]2(C)CCC(=O)C(C)(C)C2CC(OC2OC(CO)C(O)C(O)C2O)[C@]13C (some centres undefined)    > 10 µM
CC1(C)CN=C(c2ccc3ccccc3c2O)N1    > 100 µM
COc1cc(C(N)=O)c(OC)c(OC)c1OC    > 100 µM
S=C1OC2C3C4CC5C3C(O1)C1C5C4C21 (centres undefined)    > 100 µM
COCCOC(=O)CCn1cc(F)c(=O)[nH]c1=O    > 150 µg/mL
COC(=O)C1CC(C=O)=C(SC)N1 (centres undefined)    > 50 µM
Cc1cc(C#Cc2ccccc2)ccc1-n1c(/C=C/c2ccc(O)cc2)nc2ccccc2c1=O    > 100 µM
O=C1CCC(c2ccccc2)(c2ccccc2)CC1    > 100 µM

Pending compound:
Return reported TGI for target or system HOP-62 NSCLC, item CN1C(C(=O)Nc2ccccn2)=C(O)c2ccccc2S1(=O)=O . > 100 µM

###

System: MOLT-4 leukemia
assayName: NCI tumour cell line growth inhibition, 48 h
measurementLabel: TGI

The cases that follow already have their TGI on record.
COc1cc(C(N)=O)c(OC)c(OC)c1OC    > 100 µM
C=C(C)[C@@H]1CC[C@]2(C#N)CC[C@]3(C)[C@H](CC[C@@H]4[C@@]5(C)CCCNC(C)(C)[C@@H]5CC[C@]43C)[C@@H]12    5.57 µM
CCC[CH2][Ge]([CH2]CCC)([CH2]CCC)[O]C(=O)CCl    29.9 µM
Cc1nc(Nc2ccc([N+](=O)[O-])cc2)sc1C(=O)/C=C/c1ccc(N(C)C)cc1    > 100 µM
NC(=NC1C2CC3CC(C2)CC1C3)Nc1ccc(I)cc1 (centres undefined)    8.79 µM
NC(=O)Nc1n[nH]c(-c2ccccc2)n1    > 100 µM

Return reported TGI for target or system MOLT-4 leukemia, item CC(C)(C)c1ccc(C(O)(c2ccc(C(C)(C)C)cc2)c2ccc(C(C)(C)C)cc2)cc1 . > 100 µM

Return reported TGI for target or system MOLT-4 leukemia, item COCCn1cc(-c2csc(-c3c[nH]c4ccc(F)cc34)n2)c2cccnc21 . > 100 µM

Return reported TGI for target or system MOLT-4 leukemia, item OCC1CC2CC1C1(C2)OCCO1 (centres undefined) . > 100 µM

Return reported TGI for target or system MOLT-4 leukemia, item Cc1cccc(-c2cc(=O)c3c(C)ccnc3[nH]2)c1 . > 100 µM

Return reported TGI for target or system MOLT-4 leukemia, item NC(=O)Cn1c(=O)[nH]c(=O)c2[nH]cnc21 . > 100 µM

Return reported TGI for target or system MOLT-4 leukemia, item Cc1[nH]nc(C(=O)N/N=C/c2cccs2)c1N=NN(C)C . 90.7 µM

Return reported TGI for target or system MOLT-4 leukemia, item O.O=[Se](=O)(O)O.[NH-]C1CCCCC1[NH-].[Pt+2] (centres undefined) . > 100 µM

Return reported TGI for target or system MOLT-4 leukemia, item CC1(C)CN=C(c2ccc3ccccc3c2O)N1 . > 100 µM

###

Test system: NCI-H23 lung
assayName: NCI tumour cell line growth inhibition, 48 h
measurementLabel: TGI (µM)
// return numeric value only (unit: µM, not printed)

The cases that follow already have their TGI on record.
COc1cc(C(=O)c2c(-c3ccccc3)oc3ccccc23)cc(OC)c1O    22.6
CC[N+]1(C)CCC(O)(/C=C/c2ccc(Cl)c(Cl)c2)C(C(=O)/C=C/c2ccc(Cl)c(Cl)c2)C1 (stereo not drawn)    7.03
COc1cc(/C=C/C=C2\CC(C)C/C(=C\C=C\c3ccc(O)c(OC)c3)C2=O)ccc1O (stereo not drawn)    40.2
COc1ccc(/C(Cl)=C(\C=O)c2ccc(Cl)cc2)cc1    17.1

For COc1ccccc1OCC(COC(=O)Nc1ccc(C)cc1)OC(=O)Nc1ccc(C)cc1 (stereo not drawn) , write its TGI. 63.7

For CC1=C[C@H]2C[C@@]3(C)O[C@@H]([C@]4(C)CC[C@H]([C@@H](C)C(=O)O)OO4)CC3C(C)(C)[C@H]2CC1 (stereo partly drawn) , write its TGI. 3.55

###

Tested on: SW-620 colon
assayName: NCI tumour cell line growth inhibition, 48 h
Each item that follows carries a reported GI50.

The cases that follow already have their GI50 on record.
COc1cc(C=NCC(=O)CSC(c2ccccc2)c2ccccc2)cc(OC)c1OC    32.7 µM
COCCn1cc(-c2csc(-c3c[nH]c4ccc(F)cc34)n2)c2cccnc21    3.63 µM
Nc1ccccc1C#Cc1ccccc1C#CCCCCO    25.1 µM

Pending compound:
For CN1C=CN(Cc2ccc(-c3ccccn3)nc2)[CH-]1.CN1C=CN(Cc2ccc(-c3ccccn3)nc2)[CH-]1.[Au+3] , write its GI50. 0.898 µM
